The reported measurements were obtained from patent US20230357342A1.

Exercise: for every item that follows, state its recorded EC50, HEK-Blue IL18R reporter (SEAP).
Target: T1, IL-18 receptor on HEK-Blue IL18R reporter cells (UniProt Q13478 19-541; O95256 20-599, limits assumed)
T1 sequence (looked up) 1: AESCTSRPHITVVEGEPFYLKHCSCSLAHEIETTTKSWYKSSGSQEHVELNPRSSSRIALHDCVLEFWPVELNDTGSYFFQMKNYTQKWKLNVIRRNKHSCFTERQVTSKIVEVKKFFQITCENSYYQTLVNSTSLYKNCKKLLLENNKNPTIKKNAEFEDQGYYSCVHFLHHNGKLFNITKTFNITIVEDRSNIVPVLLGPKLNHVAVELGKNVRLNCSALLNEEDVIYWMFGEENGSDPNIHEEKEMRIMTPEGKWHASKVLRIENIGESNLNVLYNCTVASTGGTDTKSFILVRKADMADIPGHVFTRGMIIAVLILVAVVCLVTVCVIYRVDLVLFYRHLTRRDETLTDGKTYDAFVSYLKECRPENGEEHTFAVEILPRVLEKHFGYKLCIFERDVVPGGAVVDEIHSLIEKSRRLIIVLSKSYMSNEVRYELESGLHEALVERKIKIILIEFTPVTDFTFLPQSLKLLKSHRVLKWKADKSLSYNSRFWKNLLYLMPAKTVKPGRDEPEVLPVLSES
T1 sequence (looked up) 2: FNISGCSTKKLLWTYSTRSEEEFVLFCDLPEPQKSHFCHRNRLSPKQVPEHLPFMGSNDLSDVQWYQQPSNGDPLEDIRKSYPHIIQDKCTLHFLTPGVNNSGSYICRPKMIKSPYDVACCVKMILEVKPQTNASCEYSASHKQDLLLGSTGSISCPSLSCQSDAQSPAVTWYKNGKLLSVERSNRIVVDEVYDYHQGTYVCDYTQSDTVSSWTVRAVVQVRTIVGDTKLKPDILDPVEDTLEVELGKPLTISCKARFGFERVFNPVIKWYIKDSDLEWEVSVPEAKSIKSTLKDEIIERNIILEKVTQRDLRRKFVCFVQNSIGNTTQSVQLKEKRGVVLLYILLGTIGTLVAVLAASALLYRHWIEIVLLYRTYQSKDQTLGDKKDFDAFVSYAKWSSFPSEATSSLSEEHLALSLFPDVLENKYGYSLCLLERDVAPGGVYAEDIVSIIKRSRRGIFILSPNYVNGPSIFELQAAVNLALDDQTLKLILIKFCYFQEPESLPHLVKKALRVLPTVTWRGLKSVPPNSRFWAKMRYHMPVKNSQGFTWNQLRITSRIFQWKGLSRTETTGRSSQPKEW
Assay: cell-based or functional assay
Give bare numbers, in nM.

modified IL-18 polypeptide SEQ ID NO: 242 (N-terminal G, E6K, V11I, C38A, K53A, T63A, C76A, C127A) (ligand) GYFGKLKSKLSIIRNLNDQVLFIDQGNRPLFEDMTDSDARDNAPRTIFIISMYADSQPRGMAVAISVKCEKISTLSAENKIISFKEMNPPDNIKDTKSDIIFFQRSVPGHDNKMQFESSSYEGYFLAAEKERDLFKLILKKEDELGDRSIMFTVQNED; 1.68
modified IL-18 polypeptide SEQ ID NO: 204 (V11I, C38A, K53A, C76A, C127A) (ligand) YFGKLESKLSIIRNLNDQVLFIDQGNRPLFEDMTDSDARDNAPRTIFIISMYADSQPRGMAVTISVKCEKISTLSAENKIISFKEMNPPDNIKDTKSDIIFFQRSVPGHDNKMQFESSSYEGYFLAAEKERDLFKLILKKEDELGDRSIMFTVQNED; 0.98
modified IL-18 polypeptide SEQ ID NO: 63 (E6K, C38A, K53A, C76A, C127A) (ligand) YFGKLKSKLSVIRNLNDQVLFIDQGNRPLFEDMTDSDARDNAPRTIFIISMYADSQPRGMAVTISVKCEKISTLSAENKIISFKEMNPPDNIKDTKSDIIFFQRSVPGHDNKMQFESSSYEGYFLAAEKERDLFKLILKKEDELGDRSIMFTVQNED; 0.0139
modified IL-18 polypeptide SEQ ID NO: 212 (V11I, D35A, C38A, K53A, C76A, C127A) (ligand) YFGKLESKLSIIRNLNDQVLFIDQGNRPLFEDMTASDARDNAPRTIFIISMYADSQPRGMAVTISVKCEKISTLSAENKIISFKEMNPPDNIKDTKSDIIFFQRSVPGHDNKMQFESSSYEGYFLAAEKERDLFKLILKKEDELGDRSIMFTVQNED; 13.1

Below are some binders; for each one, tell me its EC50, HEK-Blue IL18R reporter (SEAP).
1. modified IL-18 polypeptide SEQ ID NO: 227 (V11I, C38A, S55T, C76A, C127A) (ligand) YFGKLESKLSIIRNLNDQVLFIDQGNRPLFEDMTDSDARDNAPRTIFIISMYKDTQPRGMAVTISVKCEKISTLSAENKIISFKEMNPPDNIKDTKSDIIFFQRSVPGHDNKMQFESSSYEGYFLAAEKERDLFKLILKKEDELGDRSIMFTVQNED
2. modified IL-18 polypeptide SEQ ID NO: 62 (E6K, C38A, K53A, C127A) (ligand) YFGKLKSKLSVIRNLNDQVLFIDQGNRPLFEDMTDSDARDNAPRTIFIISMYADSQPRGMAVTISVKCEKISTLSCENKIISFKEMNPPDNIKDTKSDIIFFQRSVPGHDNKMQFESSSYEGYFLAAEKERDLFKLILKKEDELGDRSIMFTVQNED
3. modified IL-18 polypeptide SEQ ID NO: 208 (V11I, C38A, K53A, D54A, C76A, C127A) (ligand) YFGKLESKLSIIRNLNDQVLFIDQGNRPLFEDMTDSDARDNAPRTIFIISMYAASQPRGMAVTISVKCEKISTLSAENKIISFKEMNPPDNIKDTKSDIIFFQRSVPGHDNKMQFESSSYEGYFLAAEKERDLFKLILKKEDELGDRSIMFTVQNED

Result block:
1: 4.73; 2: 0.17; 3: 1
